tested on: IGROV1 ovarian; experiment: NCI tumour cell line growth inhibition, 48 h
measuredQuantity: TGI

> print(dat)
                                    molecule    testedtarget  observedvalue
 1  CN(C)/N=C1\C=C2CC[C@H](O[Si](C)(C)C(C)(C)C)[C@@]2(C)CC1  IGROV1 ovarian          41 µM
 2          O=C(c1ccco1)c1ccccc1C(=O)c1ccco1  IGROV1 ovarian       > 100 µM
 3        Cc1ccc(/C=N/NS(=O)(=O)c2ccccc2)cc1  IGROV1 ovarian       > 100 µM
 4  CN(C)CCn1c(=O)oc2cc(C(=O)CN3CCOCC3)ccc21  IGROV1 ovarian       > 100 µM
 5       CCN(CC)CCOc1ccc(N2Cc3ccccc3C2=O)cc1  IGROV1 ovarian        > 10 µM
 6  CCOC(=O)CCC(NC(=O)c1ccc(Nc2cnc3cc(C(F)(F)F)ccc3n2)cc1)C(=O)OCC (stereo not given)  IGROV1 ovarian       > 100 µM
 7  O=C1c2ccccc2C(=O)c2c(NC(=O)C(Cl)CCl)cccc21 (stereo not given)  IGROV1 ovarian          20 µM
 8            O=C1NC2(CCCC2)/C(=N\O)C12CCCC2  IGROV1 ovarian       > 100 µM
 9  COc1ccc(N2CCN(CN3CCN(c4ccc(OC)cc4)C3)C2)cc1  IGROV1 ovarian       > 100 µM
10  C=CCOc1ccc(C2(c3ccc(OCC=C)cc3)C(=O)Nc3ccccc32)cc1  IGROV1 ovarian        > 10 µM
11  CN(C(=O)[C@@H](NC(=O)OC(C)(C)C)c1ccccc1)[C@H]1CCCC[C@@H]1N1CCCC1  IGROV1 ovarian       > 100 µM
12  CCCCCCCC/C=C\CCCCCCCC(=O)OC[C@]1(CO)CCC(=O)O1  IGROV1 ovarian       > 100 µM
13  COc1cc(C(C#N)NNC(=O)Cc2ccccc2)cc(OC)c1OC (stereo not given)  IGROV1 ovarian       > 100 µM
14  CS(=O)(=O)N1CC(CCl)c2ccc(NCCN)cc21 (stereo not given)  IGROV1 ovarian        49.8 µM
15      CC(=O)c1cccc(Nc2c3ccccc3nc3occc23)c1  IGROV1 ovarian        9.58 µM
16      COCOc1cc(OC)c(Br)cc1C/C(=N/O)C(=O)OC  IGROV1 ovarian       > 100 µM
17  Nc1c(S(=O)(=O)O)cc(Nc2cccc(S(N)(=O)=O)c2)c2c1C(=O)c1ccccc1C2=O  IGROV1 ovarian       > 100 µM
18  COc1ccc2c(c1)CC[C@@H]1[C@@H]2CC[C@]2(C)c3[nH]ncc3C[C@@H]12  IGROV1 ovarian        > 50 µM
19  CCOC(=O)NC(Nc1ccc(F)c(F)c1)(C(=O)OCC)C(F)(F)F (stereo not given)  IGROV1 ovarian       > 100 µM
20  O=C(O)c1c([N+](=O)[O-])cc(C(F)(F)F)cc1[N+](=O)[O-]  IGROV1 ovarian       > 100 µM
21            CN(C)Cc1cc(N=Nc2ccccc2Cl)ccc1O  IGROV1 ovarian       > 100 µM
22              C=C(CN(C)C)C(=O)c1ccc(C)cc1C  IGROV1 ovarian        17.7 µM
23  N#Cc1c(N)c2c(c(-c3ccccc3)c1-c1ccccc1)C(=O)N(Nc1ccccc1)C2=O  IGROV1 ovarian       > 100 µM
24      Nc1nc(N)c2ncn(-c3ccc(Cl)c(Cl)c3)c2n1  IGROV1 ovarian        64.6 µM
25  COc1cccc(CCn2c(N)c(C(=O)O)c3ccc([N+](=O)[O-])cc3c2=O)c1  IGROV1 ovarian       > 100 µM
26  O=C1NC(=O)[C@@H](OCC2CCCCC2)[C@@H]2OCC3OC(C(O)C3O)C12 (stereo not given in full)  IGROV1 ovarian       > 100 µM
27  O=C(N[C@@H]1C=CCC[C@@H]1c1ccccc1)OCc1ccccc1  IGROV1 ovarian        68.9 µM
28            Cc1ccc(C(=O)OC(C)C)cc1N=NN(C)C  IGROV1 ovarian       > 100 µM
29  COc1cc(-c2cc(-c3nc4cc(Cl)c(Cl)cc4[nH]3)[nH]n2)cc(OC)c1OC  IGROV1 ovarian        18.2 µM
30  CN1C(=O)N(C)C2C1NN=c1s/c(=C\c3c[nH]c4ccccc34)c(=O)n12 (stereo not given)  IGROV1 ovarian       > 100 µM
31  CCc1nc(-n2c(CC)nc3ccccc3c2=O)nc(N)c1-c1ccc(Cl)cc1  IGROV1 ovarian       > 100 µM
32  CCN(CC)CCSc1n[nH]c(-c2c[nH]c3nc(C)ccc3c2=O)n1  IGROV1 ovarian       > 100 µM
33  O=[N+]([O-])c1ccc(/C=N\Nc2ccc([N+](=O)[O-])cn2)cc1  IGROV1 ovarian       > 100 µM
34                 C/C=C/C(=O)[C@@H](O)C(C)C  IGROV1 ovarian       > 100 µM
35        c1ccc(CCCC2Sc3cccc4cccc(c34)S2)cc1  IGROV1 ovarian       > 100 µM
36  CCN1/C(=C/C=C/C=C/c2sc3ccccc3[n+]2CC)Sc2ccccc21  IGROV1 ovarian        2.14 µM
37  C=C1C(=O)OC2/C=C(\C)C(=O)CC3OC(C)(C)OC3(C)CC(OC(=O)/C(C)=C/C)C12 (stereo not given)  IGROV1 ovarian        32.3 µM
38    C=C1C(=O)CCC1C(=O)O (stereo not given)  IGROV1 ovarian       > 100 µM
39                Cc1ccc(/C=C/C(=O)C(C)C)cc1  IGROV1 ovarian       > 100 µM
40         CC(=O)Nc1ccc(-c2nc3ccccc3s2)cc1Cl  IGROV1 ovarian       > 100 µM
41  COc1ccc2c(c1)C(=O)c1c-2c(OCCN(C)C)nc2cc(OC)ccc12  IGROV1 ovarian        6.03 µM
42  CC(O)CCNC(=O)Nc1c(C(F)(F)F)cc(-c2ccccc2)[nH]c1=O (stereo not given)  IGROV1 ovarian       > 100 µM
43  CC(=O)/C(N=Nc1ccc(-n2c(C)nc3ccc(Br)cc3c2=O)cc1)=C(/C)O  IGROV1 ovarian       > 100 µM
44  CC(C)(C)OC(=O)NNC(=O)C1Cc2ccccc2OC1=O (stereo not given)  IGROV1 ovarian       > 100 µM
45                      O=Nc1ccc(O)c2ncccc12  IGROV1 ovarian        18.9 µM
